Cited source: patent US20250282866A1

# Target Desc: T1, human TREM2 (human, UniProt Q9NZC2 19-174, limits assumed)
# T1 construct: also called triggering receptor expressed on myeloid cells 2
# T1 sequence: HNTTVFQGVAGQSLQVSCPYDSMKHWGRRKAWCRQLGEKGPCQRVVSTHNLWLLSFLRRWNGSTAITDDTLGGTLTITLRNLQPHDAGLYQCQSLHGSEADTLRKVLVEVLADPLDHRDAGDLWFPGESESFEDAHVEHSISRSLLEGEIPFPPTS
# Assay Summary: 1st screen (110 nM or 10 nM)
Below is a list of entries, each paired with its recorded Binding Signal (fold over 6E7 Parental antibody) value.
Unit fold implied. Number only.

Input line: Please give the measured Binding Signal (fold over 6E7 Parental antibody) for this binder: V10 (antibody, V domains shown) VH: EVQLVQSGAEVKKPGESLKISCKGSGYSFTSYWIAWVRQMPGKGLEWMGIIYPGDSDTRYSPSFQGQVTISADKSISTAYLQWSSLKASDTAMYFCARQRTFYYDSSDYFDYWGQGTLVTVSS VL: DIQMTQSPSSVSASVGDRVTITCRASQGISSWLAWYQQKPGKAPKLLIYSASSLQNGVPSRFSGSGSGTDFTLTISSLQPEDFATYFCQQADSFPRTFGQGTKLEIK
Output line: 0.76

Input line: Please give the measured Binding Signal (fold over 6E7 Parental antibody) for this binder: V94 (antibody, V domains shown) VH: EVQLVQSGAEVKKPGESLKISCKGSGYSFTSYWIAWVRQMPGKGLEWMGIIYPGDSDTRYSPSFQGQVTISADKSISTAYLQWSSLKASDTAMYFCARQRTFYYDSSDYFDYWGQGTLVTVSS VL: DIQMTQSPSSVSASVGDRVTITCRASQGISSWLAWYQQKPGKAPKLLIYAAASLQNGVPSRFSGSGSGTDFTLTISSLQPEDFATYFCQQADSFPRTFGQGTKLEIK
Output line: 0.31

Input line: Please give the measured Binding Signal (fold over 6E7 Parental antibody) for this binder: V4 (antibody, V domains shown) VH: EVQLVQSGAEVKKPGESLKISCKGSGYSFGSYWIAWVRQMPGKGLEWMGIIYPGDSDTRVSPSFQGQVTISADKSISTAYLQWSSLKASDTAMYFCARSRTFYYDSSDYFDYWGQGTLVTVSS VL: DIQMTQSPSSVSASVGDRVTITCRASQGISSWLAWYQQKPGKAPKLLIYAASRLQNGVPSRFSGSGSGTDFTLTISSLQPEDFATYFCQQADSYPRTFGQGTKLEIK
Output line: 6
